- Target Under Test: recombinant human MGAT2 (Homo sapiens (Human))
- Assay Details: Measurement of human MGAT2 inhibitory activity
- Type: biochemical
- Condition Summary: read-out: IC50 (concentration exhibiting 50% enzyme inhibition), Table 53
Below, each entry is listed with its recorded pIC50.
The meaning of pIC50 here: minus log10 of the concentration in molar units.

// worked examples, pIC50 included
CC(=O)Nc1c2c(nn1-c1ccc(C#N)cn1)C[C@@]1(CCc3cc(OCC(F)(F)F)ccc31)NC2=O [II-51]    6.36
N#Cc1ccc(-n2nc3c(c2C(=O)NCC2CCO2)C(=O)N[C@@]2(CCc4cc(OCC(F)(F)F)ccc42)C3)nc1 (stereo partly shown) [II-187]    7.61
CS(=O)(=O)CC(=O)Nc1c2c(nn1-c1ccc(F)c(F)c1)C[C@]1(CCOc3cc(Cl)ccc31)NC2=O [II-250]    8.41

Now, please, on to the next compound.
Please report pIC50 for the following compound: Cc1ccc(-n2nc3c(c2NC(=O)CS(C)(=O)=O)C(=O)N[C@@](c2ccc(OCC(F)(F)F)cc2F)(C(F)(F)F)C3)nc1 [II-162] 8.25

###

- Target Under Test: recombinant human MGAT2 (Homo sapiens (Human))
- Assay Details: Measurement of human MGAT2 inhibitory activity
- Format: biochemical
- Condition Summary: read-out: IC50 (concentration exhibiting 50% enzyme inhibition), Table 53
Note that class boundaries on IC50 are one = under 0.008 µM, two = from 0.008 µM up to 0.03 µM, three = 0.03 µM and over

CS(=O)(=O)CC(=O)Nc1c2c(nn1-c1ccc(C#N)cn1)C[C@]1(NC2=O)c2ccc(OCC(F)(F)F)cc2CC1(F)F    one

Category of N#Cc1ccc(-n2nc3c(c2C(=O)NCCF)C(=O)N[C@@]2(CCc4cc(OCC(F)(F)F)ccc42)C3)nc1 , please. three

###

- Target Under Test: recombinant human MGAT2 (Homo sapiens (Human), UniProt Q3SYC2)
- Sequence (Q3SYC2 whole entry): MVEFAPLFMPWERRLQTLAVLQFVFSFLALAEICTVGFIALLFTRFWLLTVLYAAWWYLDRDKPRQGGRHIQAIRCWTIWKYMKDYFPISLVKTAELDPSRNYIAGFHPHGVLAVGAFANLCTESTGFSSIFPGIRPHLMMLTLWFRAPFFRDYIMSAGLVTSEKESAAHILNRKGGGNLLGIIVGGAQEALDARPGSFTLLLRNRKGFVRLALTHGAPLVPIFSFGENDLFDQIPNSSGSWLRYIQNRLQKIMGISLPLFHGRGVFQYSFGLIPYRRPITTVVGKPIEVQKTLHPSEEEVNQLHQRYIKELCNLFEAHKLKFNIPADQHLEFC
- Assay Details: Measurement of human MGAT2 inhibitory activity
- Format: biochemical
- Condition Summary: read-out: IC50 (concentration exhibiting 50% enzyme inhibition), Table 53
Below, each entry is listed with its recorded log10 of IC50.
Friendly reminder: values = log10 of IC50, unit nM.

// worked examples, log10 of IC50 included
N#Cc1ccc(-n2nc3c(c2C(=O)N[C@H]2C[C@H](O)C2)C(=O)N[C@@]2(CCc4cc(OCC(F)(F)F)ccc42)C3)nc1    1.58
CS(=O)(=O)CC(=O)Nc1c2c(nn1CCCOC(F)(F)F)C[C@@]1(CCc3cc(OCCCC(F)(F)F)ccc31)NC2=O    0.00
CS(=O)(=O)CC(=O)Nc1c2c(nn1-c1ccc(C#N)cn1)C[C@]1(CCc3cc(N4CC(F)C4)ccc31)NC2=O    1.64

Please report log10 of IC50 for the following compound: Cc1ccc(-n2nc3c(c2NC(=O)CS(C)(=O)=O)C(=O)N[C@@]2(CCc4ccccc42)C3)nc1 1.43

Please report log10 of IC50 for the following compound: COc1nccc(NCc2c3c(nn2CCC2CC2)C[C@@]2(CCc4cc(OCC(F)(F)F)ccc42)NC3=O)n1 2.62

Please report log10 of IC50 for the following compound: CS(=O)(=O)CC(=O)Nc1c2c(nn1CCC1CC1)C[C@@]1(CCc3cc(OCCCC(F)(F)F)ccc31)NC2=O 0.10

Please report log10 of IC50 for the following compound: COC(=O)CC1CN(c2ccc3c(c2)CC[C@@]32Cc3nn(CCC4CC4)c(NC(=O)CS(C)(=O)=O)c3C(=O)N2)C1 1.99

Please report log10 of IC50 for the following compound: CC(F)(F)COc1ccc2c(c1)CC[C@@]21Cc2nn(CCCOC(F)(F)F)c(NC(=O)CS(C)(=O)=O)c2C(=O)N1 0.44

Please report log10 of IC50 for the following compound: CCS(=O)(=O)CC(=O)Nc1c2c(nn1CCCOC(F)(F)F)C[C@@]1(CCOc3cc(OCC(F)(F)F)ccc31)NC2=O 0.03

###

Below, each entry is listed with its recorded pIC50.
- Target Under Test: recombinant human MGAT2 (Homo sapiens (Human), UniProt Q3SYC2)
- Assay Details: Measurement of human MGAT2 inhibitory activity
- Format: biochemical
- Condition Summary: read-out: IC50 (concentration exhibiting 50% enzyme inhibition), Table 53
The meaning of pIC50 here: minus log10 of the concentration in molar units.

Please report pIC50 for the following compound: CS(=O)(=O)CC(=O)Nc1c2c(nn1-c1ccncn1)C[C@]1(CCOc3cc(OCC(F)(F)F)ccc31)NC2=O 7.70

###

Below, each entry is listed with its recorded pIC50.
- Target Under Test: recombinant human MGAT2 (Homo sapiens (Human))
- Assay Details: Measurement of human MGAT2 inhibitory activity
- Type: biochemical
- Condition Summary: read-out: IC50 (concentration exhibiting 50% enzyme inhibition), Table 53
- Description: A full-length human MGAT2 gene to which a Flag-tag had been added at the N-terminal was inserted into pFastBac (from Invitrogen). A recombinant baculovirus was produced in accordance with the protocol for a Bac-to-Bac baculovirus expression system (produced by Invitrogen), and Sf-9 cells were infected therewith. The cells were collected and sonicated, and then the membrane fraction was collected through centrifugation. […]
The meaning of pIC50 here: minus log10 of the concentration in molar units.

Please report pIC50 for the following molecule: CS(=O)(=O)CC(=O)Nc1c2c(nn1C1CC3(COC3)C1)C[C@]1(CCc3cc(OCC(F)(F)F)ccc31)NC2=O 7.19

###

- Target Under Test: recombinant human MGAT2 (Homo sapiens (Human), UniProt Q3SYC2)
- Assay Details: Measurement of human MGAT2 inhibitory activity
- Format: biochemical
- Condition Summary: read-out: IC50 (concentration exhibiting 50% enzyme inhibition), Table 53
- Text: A full-length human MGAT2 gene to which a Flag-tag had been added at the N-terminal was inserted into pFastBac (from Invitrogen). A recombinant baculovirus was produced in accordance with the protocol for a Bac-to-Bac baculovirus expression system (produced by Invitrogen), and Sf-9 cells were infected therewith. The cells were collected and sonicated, and then the membrane fraction was collected through centrifugation. […]
Below, each entry is listed with its recorded pIC50.
The meaning of pIC50 here: minus log10 of the concentration in molar units.

CS(=O)(=O)CC(=O)Nc1c2c(nn1CCCC(F)(F)F)C[C@@]1(NC2=O)c2ccc(OCC(F)(F)F)cc2CC1(F)F    7.34
Cc1ccc(-n2nc3c(c2C(=O)NCC2(C(F)F)CC2)C(=O)N[C@@]2(CCOc4cc(OCC(F)(F)F)ccc42)C3)nc1    7.17
CS(=O)(=O)CC(=O)Nc1c2c(nn1CCC1CC1)C[C@@]1(CCc3cc(N4CC(F)C4)ccc31)NC2=O    7.39
CS(=O)(=O)CC(=O)Nc1c2c(nn1CCC1CC1)C1(Cc3ccc(OCC(F)(F)F)cc3C1)NC2=O (stereo not shown)    7.34

Please report pIC50 for the following compound: CNS(=O)(=O)CC(=O)Nc1c2c(nn1-c1ccc(C#N)cn1)C[C@@]1(CCc3cc(OCC(F)(F)F)ccc31)NC2=O 8.40

Please report pIC50 for the following compound: Cc1cc(-n2nc3c(c2NC(=O)CS(C)(=O)=O)C(=O)N[C@@]2(CCOc4cc(OCCCC(F)(F)F)ccc42)C3)no1 9.65

Please report pIC50 for the following compound: CS(=O)(=O)CC(=O)Nc1c2c(nn1CC1CC(F)(F)C1)C[C@]1(CCc3cc(OCC(F)(F)F)ccc31)NC2=O 7.46

Please report pIC50 for the following compound: CS(=O)(=O)CC(=O)Nc1c2c(nn1CCCCC(F)(F)F)C[C@@]1(CCc3cc(OCC(F)(F)F)ccc31)NC2=O 7.92

Please report pIC50 for the following compound: CS(=O)(=O)CC(=O)Nc1c2c(nn1CCCOC(F)(F)F)C[C@@]1(CCc3cc(OCC(F)(F)C(F)F)ccc31)NC2=O 8.46

Please report pIC50 for the following compound: Cc1ccc(-n2nc3c(c2NC(=O)CS(C)(=O)=O)C(=O)N[C@@]2(CCc4cc(Cl)ccc42)C3)nn1 8.21

Please report pIC50 for the following compound: Cc1ccc(-n2nc3c(c2NC(=O)CS(C)(=O)=O)C(=O)N[C@@]2(CCc4cc(OCC(C)(F)F)ccc42)C3)nc1 8.42

###

- Target Under Test: CYP2C19 (Homo sapiens (Human), UniProt P33261)
- Sequence (P33261 whole entry): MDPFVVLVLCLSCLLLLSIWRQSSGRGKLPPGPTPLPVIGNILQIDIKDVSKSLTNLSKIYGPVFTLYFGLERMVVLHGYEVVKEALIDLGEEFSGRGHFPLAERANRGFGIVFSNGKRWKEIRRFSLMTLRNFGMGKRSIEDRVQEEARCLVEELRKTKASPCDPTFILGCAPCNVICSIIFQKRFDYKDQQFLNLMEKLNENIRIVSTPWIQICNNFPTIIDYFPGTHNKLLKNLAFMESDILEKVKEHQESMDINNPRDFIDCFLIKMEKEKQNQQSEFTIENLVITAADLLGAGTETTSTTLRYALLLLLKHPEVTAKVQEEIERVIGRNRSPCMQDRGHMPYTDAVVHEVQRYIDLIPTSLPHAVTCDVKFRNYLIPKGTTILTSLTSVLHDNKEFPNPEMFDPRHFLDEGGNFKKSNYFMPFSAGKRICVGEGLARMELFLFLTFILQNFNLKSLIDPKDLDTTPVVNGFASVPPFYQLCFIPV
Parameter Measured: IC50

Consider the compound Cc1ccc(-n2nc3c(c2NC(=O)CS(C)(=O)=O)C(=O)N[C@@]2(CCc4cc(OCCCC(F)(F)F)ccc42)C3)nn1 tested on CYP2C19 (Homo sapiens (Human), UniProt P33261); state its IC50. > 20 µM

###

- Target Under Test: recombinant human MGAT2 (Homo sapiens (Human), UniProt Q3SYC2)
- Assay Details: Measurement of human MGAT2 inhibitory activity
- Assay type: biochemical
- Condition Summary: read-out: IC50 (concentration exhibiting 50% enzyme inhibition), Table 52
- From the text: A full-length human MGAT2 gene to which a Flag-tag had been added at the N-terminal was inserted into pFastBac (from Invitrogen). A recombinant baculovirus was produced in accordance with the protocol for a Bac-to-Bac baculovirus expression system (produced by Invitrogen), and Sf-9 cells were infected therewith. The cells were collected and sonicated, and then the membrane fraction was collected through centrifugation. […]
Parameter Measured: IC50 (µM)
I only need the number, in µM, no unit after it.

// worked examples, IC50 included
Cc1ccc(-n2nc3c(c2NC(=O)CS(C)(=O)=O)C(=O)N[C@@]2(CCc4cc(OCC(F)(F)F)ccc42)C3)cc1    0.0069
CS(=O)(=O)CC(=O)Nc1c2c(nn1-c1cc(F)cc(F)c1)C[C@]1(CCc3cc(OCC(F)(F)F)ccc31)NC2=O    0.105

Please report IC50 for the following compound: CC(C)(O)c1ccc(-n2nc3c(c2NC(=O)CS(C)(=O)=O)C(=O)N[C@@]2(CCc4cc(OCC(F)(F)F)ccc42)C3)nc1 0.016
